These entries and their values trace back to ChEMBL document CHEMBL5058577.

# Test system: HEK-293T
# assay.remarks: Multiplex assay against HEK293T
# Assay type: toxicity, cell-based
# measurement.conditions: human, 24 h, 10 µM, compound concentration 10 uM, replicate 2
Non-standard residues stand in square brackets, D forms with d. Residues, ends and D or L forms follow the SMILES beside them.
Criterion: Population Mitotic Cells (%) meeting or surpassing 60%. Met: criterion met. Not met: criterion not met.

Prompt: Decide: is the reported value of Population Mitotic Cells (%) for "Cn1cc(C(=O)OCC2CCN(CCNS(C)(=O)=O)CC2)c2ccccc21" equal to or greater than 60%?
Completion: criterion not met

Prompt: Decide: is the reported value of Population Mitotic Cells (%) for "COC(c1ccccc1)(c1ccccc1)[C@H](Oc1nc(C)cc(C)n1)C(=O)O" equal to or greater than 60%?
Completion: criterion not met

Prompt: Decide: is the reported value of Population Mitotic Cells (%) for "O=c1ccc2ccc(OCCCCN3CCN(c4cccc5sccc45)CC3)cc2[nH]1" equal to or greater than 60%?
Completion: criterion not met

Prompt: Decide: is the reported value of Population Mitotic Cells (%) for CCC(=O)OCC(=O)[C@@]1(OC(=O)CC)[C@@H](C)C[C@H]2[C@@H]3CCC4=CC(=O)C=C[C@]4(C)[C@@]3(Cl)[C@@H](O)C[C@@]21C [BECLOMETHASONE DIPROPIONATE] equal to or greater than 60%?
Completion: criterion not met

Prompt: Decide: is the reported value of Population Mitotic Cells (%) for "COc1cc2nc(N3CCN(C(=O)COc4c(OC)cccc4C(C)C)CC3)nc(N)c2cc1OC.Cl.Cl" equal to or greater than 60%?
Completion: criterion not met

Prompt: Decide: is the reported value of Population Mitotic Cells (%) for "Nc1nc(-c2ccco2)c2cnn(Cc3ccccc3F)c2n1" equal to or greater than 60%?
Completion: criterion met

Prompt: Decide: is the reported value of Population Mitotic Cells (%) for "CC(C)(C)c1ccc(CSc2cnn(C(C)(C)C)c(=O)c2Cl)cc1" equal to or greater than 60%?
Completion: criterion not met

Prompt: Decide: is the reported value of Population Mitotic Cells (%) for Cl.Cl.OCCOCCN1CCN(C(c2ccccc2)c2ccc(Cl)cc2)CC1 (stereo not given) [HYDROXYZINE HYDROCHLORIDE] equal to or greater than 60%?
Completion: criterion not met

Prompt: Decide: is the reported value of Population Mitotic Cells (%) for "Cc1cc(-c2ccc3c(c2)CC[C@H]3N2CC3(CCN(C(=O)Cc4cn5cc(C)sc5n4)CC3)C2)ncn1" equal to or greater than 60%?
Completion: criterion met

Prompt: Decide: is the reported value of Population Mitotic Cells (%) for "O=C(Nc1cc(-c2ccccc2)nn1-c1ccccc1F)c1ccc([N+](=O)[O-])cc1" equal to or greater than 60%?
Completion: criterion met

Prompt: Decide: is the reported value of Population Mitotic Cells (%) for "Cc1sc2c(c1C)C(c1ccc(Cl)cc1)=N[C@H](CC(=O)OC(C)(C)C)c1nnc(C)n1-2" equal to or greater than 60%?
Completion: criterion not met

Prompt: Decide: is the reported value of Population Mitotic Cells (%) for CC(C)C[C@@H]1NC(=O)[C@@H](C(C)C)NC(=O)[C@@H]2CCCN2C(=O)[C@@H](CC(=O)O)NC(=O)[C@@H](Cc2c[nH]c3ccccc23)NC1=O [BQ-123] (cyclo(L[dW][dD]P[dV])) equal to or greater than 60%?
Completion: criterion not met

Prompt: Decide: is the reported value of Population Mitotic Cells (%) for "C=CCN1C[C@H](C(=O)N(CCCN(C)C)C(=O)NCC)C[C@@H]2c3cccc4[nH]cc(c34)C[C@H]21" equal to or greater than 60%?
Completion: criterion not met
